# assay_remarks: NCI Yeast Anticancer Drug Screen. Data for the rad14 strain (AID 159);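 note: 0% = growth of vehicle-treated control cultures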
# settings: S. cerevisiae rad14 strain growth inhibition; at 11.0 µM
Compounds without any hit were thinned out: in the full panel of roughly 79,000, 15% have a hit. Calls of active or inactive are those of the source. Cut-off read from the data, not from the text of the source: active = growth inhibition above about 70%; inactive = the rest.
Select the matching outcome among active, inactive

What was the test verdict on `CCN(CC)c1cccc(Nc2nc3ccccc3s2)c1` ?
inactive

What was the test verdict on `O=C1c2ccccc2C(=O)C1C(c1ccc(F)cc1)C1C(=O)c2ccccc2C1=O` ?
inactive

What was the test verdict on NCC(O)CSCc1ccc(Cl)cc1 (configuration not stated) ?
inactive

What was the test verdict on `CNc1ccc2[nH]c3ccccc3c2c1` ?
inactive

What was the test verdict on `Cc1ccc(SSc2ccc(C)cc2[N+](=O)[O-])c([N+](=O)[O-])c1` ?
inactive

What was the test verdict on `O=C1C=CC(=Nc2ccc3c(c2)Cc2cc(Cl)ccc2-3)O1` ?
active

What was the test verdict on O=C1C(C(O)(C(F)(F)F)C(F)(F)F)CCC1C(O)(C(F)(F)F)C(F)(F)F (configuration not stated) ?
inactive

----------
# assay_remarks: NCI Yeast Anticancer Drug Screen. Data for the rad50 strain (AID 155);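 note: 0% = growth of vehicle-only cultures of the same strain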
# settings: S. cerevisiae rad50 strain growth inhibition; at 11.0 µM
This is part of a sample that, as a whole, favours compounds with a hit. Of some 79,000 tested, about 15% had one in any assay. Calls of active or inactive are those of the source. No stated cut-off is given here; in the data, active means growth inhibition above about 70%; inactive means the rest.
Select the matching outcome among TRUE for active, FALSE for inactive

What was the test verdict on O=C(O)NCC1CCCCC1 (tested in a mixture with another compound) ?
FALSE

What was the test verdict on `CCCCCCCCCCCCCCCCCN` ?
TRUE

What was the test verdict on O=S(=O)(CCC[C@H]1[C@@H](CCOCc2ccccc2)C2CCCN1O2)c1ccccc1 (stereo not given in full) ?
FALSE

What was the test verdict on `NNc1nnc(-c2ccccc2)nc1Cc1ccccc1` ?
FALSE

What was the test verdict on c1ccc2cc(OCC3CO3)c(OCC3CO3)cc2c1 (stereo not given) ?
FALSE

----------
# assay_remarks: NCI Yeast Anticancer Drug Screen. Data for the sgs1 strain (AID 173);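 note: 0% = growth of vehicle-only control cultures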
# settings: S. cerevisiae sgs1 mutant, at 33.0 µM
About 79,000 compounds went through this panel and 15% of them were active in at least one assay; those are over-represented in the sample as a whole. The source made the active and inactive calls. Cut-off read from the data, not from the text of the source: active = growth inhibition above about 70%; inactive = the rest.
Select the matching outcome among TRUE (active), FALSE (inactive)

What was the test verdict on `CNC(=O)OCc1c(COC(=O)NC)c(C)n(-c2ccc(Cl)c(Cl)c2)c1C` ?
TRUE

What was the test verdict on `O=C(CSS(=O)(=O)O)c1ccccc1` ?
FALSE

What was the test verdict on `O=CC(=C(I)I)c1ccccc1` ?
TRUE

What was the test verdict on `[Cl][Pt+2][Cl].[NH-]CC1(C[NH-])CCCCC1` ?
TRUE

What was the test verdict on `CN1CCN(c2ccc3nc(-c4ccc5nc(-c6ccc(O)cc6)[nH]c5c4)[nH]c3c2)CC1` ?
TRUE

What was the test verdict on `CCN(CC)c1cccc(Nc2nc3ccccc3s2)c1` ?
FALSE

What was the test verdict on `COc1ccc2nc(N/N=C/c3sccc3C)cc(C)c2c1` ?
TRUE

What was the test verdict on `CN(C)N1C(=O)SCC(c2ccccc2)(c2ccccc2)C1=O` ?
FALSE

What was the test verdict on `CCOc1ccc2ccc3cccnc3c2n1` ?
FALSE

What was the test verdict on CC(C)OC(CCC#N)c1ccc(Cl)cc1 (configuration not stated) ?
FALSE

What was the test verdict on `N#C/C(=C1C=C/C(=N\O)C(Cl)=C\1)c1ccccc1` ?
FALSE

What was the test verdict on `Cc1ccc(Cl)c2c(=O)c3ccccc3[nH]c12` ?
FALSE

What was the test verdict on CC(O)CN1C(=O)c2cccc3cc([N+](=O)[O-])cc(c23)C1=O (configuration not stated) ?
FALSE

What was the test verdict on S=C1NC2=C(CSC/C2=C\c2ccc(Cl)cc2)C(c2ccc(Cl)cc2)N1 (configuration not stated) ?
TRUE

What was the test verdict on `Cc1ccc(C(C)C)c(C(=C2C=CC(=[N+](C)C)C=C2)c2c(C(C)C)ccc(C)c2O)c1O` ?
TRUE

What was the test verdict on `O=C(CCCN1CCC2(CC1)OC(=O)N(c1ccccc1)C2=O)c1ccccc1` ?
TRUE

What was the test verdict on `Nc1ccc2cc(Br)c3ccccc3c2c1` ?
FALSE

What was the test verdict on Cc1nc2ccc(Br)cc2c(=O)n1-c1ccc(NC2OCC(O)C(O)C2O)cc1 (configuration not stated) ?
FALSE

What was the test verdict on CC1=NN(C(=O)CC(=O)N(C(=O)c2ccccc2)c2ccc(Cl)cc2)C(=O)C1N=Nc1ccc([N+](=O)[O-])cc1 (configuration not stated) ?
FALSE

What was the test verdict on c1ccc(N/N=C2\CC(c3ccccc3)Oc3ccccc32)cc1 (configuration not stated) ?
FALSE

What was the test verdict on `CCOC(=O)C1=C(C)NC(C)=C(C(=O)OCC)C1c1cccc([N+](=O)[O-])c1` ?
FALSE

What was the test verdict on `CN(C)CCC(=O)c1c[nH]c2ccccc12` ?
FALSE

----------
# assay_remarks: NCI Yeast Anticancer Drug Screen. Data for the mlh1 strain (AID 171);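 note: 0% = growth of vehicle-treated control cultures of the same strain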
# settings: S. cerevisiae mlh1 strain growth inhibition; at 33.0 µM; stronger effect = higher value
This is part of a sample that, as a whole, favours compounds with a hit. Of some 79,000 tested, about 15% had one in any assay.
Tag: MET if measured growth inhibition is not below 70%, NOT MET if it is.

Could you please find out whether CC(C)(C)[Si](C)(C)OCC1OC(n2cnc3c(N)ncnc32)C2OC(=S)OC12 (stereo not given) has growth inhibition that meets 70% or exceeds it?
NOT MET

Could you please find out whether CCC(C)C(=O)OCC(=O)c1ccc(-c2ccccc2)cc1 (stereo not given) has growth inhibition that meets 70% or exceeds it?
NOT MET

Could you please find out whether O=C1c2ccccc2C2CCC1c1ccccc12 (stereo not given) has growth inhibition that meets 70% or exceeds it?
NOT MET

Could you please find out whether `Cc1ccc2oc(-c3cccc(N)c3)nc2c1` has growth inhibition that meets 70% or exceeds it?
NOT MET

Could you please find out whether COc1ccc(/C(=N/O)c2ccccc2C2=Nc3ccccc3C(NCc3ccccc3)O2)cc1C (stereo not given) has growth inhibition that meets 70% or exceeds it?
NOT MET

Could you please find out whether `Oc1ccc(Br)cc1C=Nc1cccc(C(F)(F)F)c1` has growth inhibition that meets 70% or exceeds it?
MET

Could you please find out whether `O=CC(=C(I)I)c1ccccc1` has growth inhibition that meets 70% or exceeds it?
MET

Could you please find out whether CCC1SC(=S)N(c2ccc(Cl)cc2)C1=O (stereo not given) has growth inhibition that meets 70% or exceeds it?
NOT MET

Could you please find out whether `CN(C)/N=N/c1nc[nH]c1C(N)=O` has growth inhibition that meets 70% or exceeds it?
NOT MET

Could you please find out whether `CCCCOc1ccc(Nc2c3ccccc3nc3ccccc23)cc1` has growth inhibition that meets 70% or exceeds it?
MET

Could you please find out whether `CCCCCC(=O)C(C)(c1nc2n(c1O)/C(=N/C(=O)Nc1ccc(Cl)cc1)N=N2)c1nc2n(c1O)/C(=N/C(=O)Nc1ccc(Cl)cc1)N=N2` has growth inhibition that meets 70% or exceeds it?
NOT MET

Could you please find out whether `CCCCCC/C(C)=N/Nc1ccc([N+](=O)[O-])cc1[N+](=O)[O-]` has growth inhibition that meets 70% or exceeds it?
NOT MET

Could you please find out whether c1ccc(N/N=C2\CC(c3ccccc3)Oc3ccccc32)cc1 (stereo not given) has growth inhibition that meets 70% or exceeds it?
NOT MET

Could you please find out whether `Cc1c2ccncc2c(C)c2c1oc1ccccc12` has growth inhibition that meets 70% or exceeds it?
MET

Could you please find out whether `CN(C)CCNC(=O)c1cccc2nc3c4ccccc4c4ccccc4c3nc12` has growth inhibition that meets 70% or exceeds it?
MET

Could you please find out whether CCCCCCCCCCCCCCCCOCC(Cl)COP(=O)(O)OP(=O)(O)OCC1OC(n2cnc3c(N)ncnc32)C(O)C1O (stereo not given) has growth inhibition that meets 70% or exceeds it?
NOT MET

Could you please find out whether OC1C#CCSCC#C/C=C\1 (stereo not given) has growth inhibition that meets 70% or exceeds it?
NOT MET

Could you please find out whether `O=Cc1ccccc1B(O)O` has growth inhibition that meets 70% or exceeds it?
MET

----------
Please provide measured growth inhibition for the entries that follow.
# assay_remarks: NCI Yeast Anticancer Drug Screen. Data for the sgs1 mgt1 strain (AID 161);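 note: 0% = growth of cultures given vehicle only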
# settings: S. cerevisiae sgs1 mgt1 strain, at 5.0 µM (retest, dose inferred, filed as 0.5), stronger effect = higher value
About 79,000 compounds went through this panel and 15% of them were active in at least one assay; those are over-represented in the sample as a whole.
Your answer should be a plain number; it is taken to be in %.

Given `NNc1nnc(-c2ccccc2)nc1Cc1ccccc1` , respond with its growth inhibition.
-7

Given `Cc1nc2ccccc2c(=O)n1NC(=O)c1ccc(CS)cc1` , respond with its growth inhibition.
-14

Given `Cc1cc(N(CCOS(C)(=O)=O)CCOS(C)(=O)=O)ccc1C=O` , respond with its growth inhibition.
13

Given Cc1ccccc1C1=C(CC(=O)O)c2ccccc2CC1C (configuration not stated) , respond with its growth inhibition.
2

Given `c1cc2ccc3cc4ncccc4c4ccc(c1)c2c34` , respond with its growth inhibition.
34

Given `c1cncc(C(Nc2cccc3cccnc23)Nc2cccc3cccnc23)c1` , respond with its growth inhibition.
28

Given `O=C(Cc1ccccc1)c1ccc(O)cc1` , respond with its growth inhibition.
1

Given `O=C1C(Br)=CC(Br)(Br)C=C1Br` , respond with its growth inhibition.
-27

Given CCCCCCC(CCl)c1sc(-c2csc(CCNC(=O)OC(C)(C)C)n2)nc1C(=O)OC (configuration not stated) , respond with its growth inhibition.
17

Given `O=C1C=CC(=O)N1c1ccc(Br)cc1Cl` , respond with its growth inhibition.
101

Given CCOC(=O)c1[nH]c2cccc3c2c1CC(Br)C3=O (configuration not stated) , respond with its growth inhibition.
66

Given `O=C(CCCN1CCC2(CC1)OC(=O)N(c1ccccc1)C2=O)c1ccccc1` , respond with its growth inhibition.
48

Given `COc1ccc2c(Cc3c4ccccc4cc4ccccc34)cncc2c1O` , respond with its growth inhibition.
30

Given `C=Cc1c(C)c(O)cc2c1-c1ccc(O)c(C)c1CC2` , respond with its growth inhibition.
55

Given O=C1c2ccccc2C2CCC1c1ccccc12 (configuration not stated) , respond with its growth inhibition.
-15

Given `Cc1ccc(SSc2ccc(C)cc2[N+](=O)[O-])c([N+](=O)[O-])c1` , respond with its growth inhibition.
-8

Given OC1C#CCSCC#C/C=C\1 (configuration not stated) , respond with its growth inhibition.
-4

Given `Nc1ccc2cc(Br)c3ccccc3c2c1` , respond with its growth inhibition.
13

Given CC[N+]1(C)CCC(O)(/C=C/c2ccc(Cl)c(Cl)c2)C(C(=O)/C=C/c2ccc(Cl)c(Cl)c2)C1 (configuration not stated) , respond with its growth inhibition.
88

Given `CCOC(=O)c1sc2[n+](c1C)C(=O)/C(=C/c1cc(OC)c(OC)c(OC)c1)S2` , respond with its growth inhibition.
-4

Given `CNc1ccc2[nH]c3ccccc3c2c1` , respond with its growth inhibition.
-11

Given `N=C(N)c1ccc(N=Nc2c(O)ccc3c2[nH]c2ccccc23)cc1` , respond with its growth inhibition.
17

Given `COc1ccc2cc(CN3CCC(C4CCN(Cc5ccc6cc(OC)ccc6c5)CC4)CC3)ccc2c1` , respond with its growth inhibition.
7

Given `COc1ccc(/C=C2\CCc3ccccc3C2=O)cc1OC` , respond with its growth inhibition.
37

Given `CC(C)(C(=O)NN)c1ccccc1` , respond with its growth inhibition.
14

Given `Clc1ccc(C(c2ccc(Cl)cc2)N2CCNCC2)cc1` , respond with its growth inhibition.
-35

Given `BrC/C=C/C[P+](c1ccccc1)(c1ccccc1)c1ccccc1` , respond with its growth inhibition.
18

Given `COc1ccc(C(=O)NCCN(C)C)c2nc3ccccc3cc12` , respond with its growth inhibition.
18

Given `CCN(CC)c1ccc(N=Nc2cc(S(=O)(=O)O)ccc2O)c(O)c1` , respond with its growth inhibition.
-13

Given `Cc1ccc(Nc2n[nH]c(=S)s2)cc1C` , respond with its growth inhibition.
5

Given `Cc1ccc(N(C=O)c2c([N+](=O)[O-])cc([N+](=O)[O-])c3c2=[N+]([O-])CN=3)cc1` , respond with its growth inhibition.
12

Given `O=C1C=CC(=Nc2ccc3c(c2)Cc2cc(Cl)ccc2-3)O1` , respond with its growth inhibition.
49

Given `O=[N+]([O-])c1ccc2nnnn2c1` , respond with its growth inhibition.
29

Given `CCN(CC)c1cccc(Nc2nc3ccccc3s2)c1` , respond with its growth inhibition.
3

Given `Cc1ccc2oc(-c3cccc(N)c3)nc2c1` , respond with its growth inhibition.
10

Given `CCCCCCCCCC/C=C\CC(=O)O` , respond with its growth inhibition.
-1

Given `CCOC(=O)C1=C(C)NC(C)=C(C(=O)OCC)C1c1ccc(Cl)cc1` , respond with its growth inhibition.
-1
